Measured On: Follistatin-related protein 3 (Homo sapiens) (UniProt O95633)
Sequence (O95633 whole entry, looked up): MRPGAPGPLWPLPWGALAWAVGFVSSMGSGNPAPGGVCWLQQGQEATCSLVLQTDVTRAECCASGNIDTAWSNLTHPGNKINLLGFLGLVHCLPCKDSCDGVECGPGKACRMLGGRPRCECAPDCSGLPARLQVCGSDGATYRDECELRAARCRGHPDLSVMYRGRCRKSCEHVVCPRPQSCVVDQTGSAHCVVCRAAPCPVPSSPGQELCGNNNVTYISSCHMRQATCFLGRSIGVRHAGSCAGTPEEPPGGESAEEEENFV
Protocol Notes: compounds binding follistatin-related protein 3 – biochemical, small-molecule microarray, 635 nm fluorescence, primary screen (AID 1105);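 further: score merges emission near 667 nm and signal to noise per printed spot across three slides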
Experimental Context: FSTL3 binding, higher = more signal

Compound | composite z-score
CC(C)CNC(=O)[C@@]1(C)c2ccccc2C(=O)N(Cc2ccccc2)[C@H]1c1ccc(CO)cc1 | -2.11
O=C1NC(=O)C2C1C=CC(C(O)c1ccc3c(c1)OCO3)N2Nc1ccc(Cl)cc1Cl (centres undefined) | 0.304
COCCOC(=O)N1C(=O)[C@@]2(c3cc(C#CCNC(N)=O)ccc31)[C@H](C(N)=O)[C@H]1C(=O)O[C@H](c3ccccc3)[C@H](c3ccccc3)N1[C@@H]2c1ccc(OCCO)cc1 | 1.45
CC1=C2[C@@H](CCc3ccccc3)OB(O)C[C@@H]2[C@@H]2C(=O)C=CC(=O)[C@@H]2C1 | 0.853
COCCCNC(=O)[C@]1(CCS(=O)(=O)c2ccccc2)N=C(c2ccc(OCCCO)cc2)O[C@@H]1c1ccccc1 | 0.485
CC(C)(C)N1CC=CC23O[C@@H]4C=CCCOC(=O)C4[C@H]2C(=O)N(CCCO)[C@@H]3C1=O (some centres undefined) | -0.788
COC(=O)[C@@]1(Cc2ccccc2)[C@H]2c3cc(C(=O)N4CCCC4)n(Cc4ccccc4)c3C[C@H]2CN1C(=O)c1ccccc1 | 0.96
COCCOC(=O)N1C(=O)[C@@]2(c3cc(C#CCCO)ccc31)[C@H](C(=O)NC[C@H](O)c1ccccc1)[C@H]1C(=O)O[C@H](c3ccccc3)[C@H](c3ccccc3)N1[C@@H]2c1ccccc1OCCO | 1.41
CC(C)(C)OC(=O)CC[C@@]1(C(=O)N2CCCCC2)N=C(c2ccc(OCCCO)cc2)O[C@@H]1c1ccccc1N=[N+]=[N-] | 1.1

###

Measured On: E3 ubiquitin-protein ligase XIAP (Homo sapiens)
Protocol Notes: small molecules binding XIAP protein – biophysical, small-molecule microarray, fluorescence 635 nm, primary screen (AID 1181);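 further: score merges 667 nm emission and signal to noise over triplicate slides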
Experimental Context: higher = more signal
The entries below are paired with their reported composite z-score.

Compound | Measured On | composite z-score
CC(C)C[C@@H]1NC(=O)[C@@]23C(=O)N[C@@H](Cc4ccccc4)C2[C@H](C)[C@@]2(C)O[C@H]2C3/C=C/C/C=C\CNC(=O)[C@@H]2CCCN2C1=O (stereo partly drawn) | E3 ubiquitin-protein ligase XIAP (Homo sapiens) | -0.207
C[N+](C)(C)CCCCCCNC(=O)[C@@H]1C[C@@H]2C(=O)NCC(=O)N2[C@@H]1c1ccc(O)cc1 | E3 ubiquitin-protein ligase XIAP (Homo sapiens) | -0.128
COc1cc(NN2C(C(O)c3ccc(I)cc3)C=CC3C(=O)N(C)C(=O)C32)cc(OC)c1OC (stereo not drawn) | E3 ubiquitin-protein ligase XIAP (Homo sapiens) | 0.346
O=C1C[C@@](C(=O)NCc2ccccc2)(c2ccc([N+](=O)[O-])cc2)[C@@H](c2ccc(CO)cc2I)N1C1CCCCC1 | E3 ubiquitin-protein ligase XIAP (Homo sapiens) | -0.115
COC(=O)C(CC#Cc1ccc2c(c1)[C@]1(C(=O)N2)[C@H](C(=O)N2CCc3cc(OC)c(OC)cc3C2)[C@H]2C(=O)O[C@H](c3ccccc3)[C@H](c3ccccc3)N2[C@@H]1c1ccc(OCCO)cc1)C(=O)OC | E3 ubiquitin-protein ligase XIAP (Homo sapiens) | 0.23
Cc1ccc(S[C@]2(C(=O)O)CC(=O)N(Cc3ccccc3C(F)(F)F)[C@@H]2c2ccc(CO)cc2)cc1 | E3 ubiquitin-protein ligase XIAP (Homo sapiens) | -0.313
O=C1C2C=CC(C(O)c3ccccn3)N(Nc3ccccc3)C2C(=O)N1c1ccccc1 (stereo not drawn) | E3 ubiquitin-protein ligase XIAP (Homo sapiens) | 0.109
CCOC(=O)C[C@H]1[C@H](OC(=O)c2ccccc2-c2ccccc2)[C@@H](NC(=O)c2ccccc2)c2cc(OCCCO)ccc2N1C(=O)Cc1ccc(OC)cc1 | E3 ubiquitin-protein ligase XIAP (Homo sapiens) | 0.0871
CC(C)NC(=O)[C@@H]1c2ccccc2C(=O)N(Cc2cc(C(F)(F)F)cc(C(F)(F)F)c2)[C@H]1c1ccc(CO)cc1 | E3 ubiquitin-protein ligase XIAP (Homo sapiens) | -0.0141
COc1ccc([Si](C)(C)[C@@H]2[C@@H](CC(=O)N3Cc4ccccc4C[C@H]3CO)O[C@]3(C(=O)N(Cc4cccc(N5CCCCC5=O)c4)c4ccccc43)[C@H]2C)cc1 | E3 ubiquitin-protein ligase XIAP (Homo sapiens) | -0.148
C=CCC(OC(C)=O)[C@@H]1[C@@H](N(Cc2cc3ccccc3o2)C(=O)Cc2ccc(OC)cc2)c2cc(OCCCO)ccc2N1C(=O)c1ccc(-c2ccccc2)cc1 (stereo partly drawn) | E3 ubiquitin-protein ligase XIAP (Homo sapiens) | -0.0575
COCC(=C=CC[C@@H](O)c1ccccc1OCCO)C[C@@H](O)c1ccccn1 | E3 ubiquitin-protein ligase XIAP (Homo sapiens) | -0.0541
CC(=O)NCCCC[C@@H]1NC(=O)[C@H]2C[C@@H](C(=O)NCCCCCN)[C@@H](c3cccc(OCCO)c3)N2C1=O | E3 ubiquitin-protein ligase XIAP (Homo sapiens) | -0.02
CO[C@H]1O[C@H](CO)[C@@H](OC(=O)c2ccc(Br)cc2)[C@@H]2OC(=O)[C@H](Cc3cccc(Br)c3)C/C=C/C[C@@H](Cc3cccc(Br)c3)C(=O)O[C@@H]12 | E3 ubiquitin-protein ligase XIAP (Homo sapiens) | -0.0663
[N-]=[N+]=NCc1ccccc1[C@H]1OC(c2ccc(OCCCO)cc2)=N[C@@]1(Cc1ccccc1N=[N+]=[N-])C(=O)NCCN1CCOCC1 | E3 ubiquitin-protein ligase XIAP (Homo sapiens) | -0.0414
COc1ccc(C#Cc2ccc3c(c2)[C@]2(C(=O)N3)[C@H](C(N)=O)[C@H]3C(=O)O[C@H](c4ccccc4)[C@H](c4ccccc4)N3[C@@H]2c2ccc(O)cc2)cc1 | E3 ubiquitin-protein ligase XIAP (Homo sapiens) | 0.0031
CCCC[C@@H](O)C1=C(COc2ccccc2)Cn2c(=O)n(-c3ccccc3)c(=O)n2[C@H]1CO | E3 ubiquitin-protein ligase XIAP (Homo sapiens) | 0.106
COCCCNC(=O)[C@@]1(Cc2ccccc2I)c2ccccc2C(=O)N(Cc2ccccc2Cl)[C@H]1c1ccc(CO)cc1 | E3 ubiquitin-protein ligase XIAP (Homo sapiens) | 0.186
O=C(C=C(CC(O)c1cccc(Cl)c1)OCCF)OCCF (stereo not drawn) | E3 ubiquitin-protein ligase XIAP (Homo sapiens) | 0.237
CC(C)C[C@@H]1NC(=O)[C@@H]2C[C@H](C(=O)NCc3ccc(F)cc3)[C@H](c3ccc(O)cc3)N2C1=O | E3 ubiquitin-protein ligase XIAP (Homo sapiens) | 0.222
O=C1O[C@H](c2ccccc2)[C@H](c2ccccc2)N2[C@H]1[C@@H](C(=O)N1CCCCCCC1)[C@]1(C(=O)Nc3ccccc31)[C@H]2c1ccc(O)cc1 | E3 ubiquitin-protein ligase XIAP (Homo sapiens) | 2.57
COC(=O)[C@@]1(Cc2ccc(OC)cc2)[C@H]2c3cc(C(=O)N(C)C)n(CCF)c3C[C@H]2CN1C(=O)c1ccccc1 | E3 ubiquitin-protein ligase XIAP (Homo sapiens) | -0.0592
CCOc1cc(C(O)C2C=CC3C(=O)NC(=O)C3N2Nc2ccccn2)ccc1O (stereo not drawn) | E3 ubiquitin-protein ligase XIAP (Homo sapiens) | 0.0652

Attribution: PubChem BioAssay
